Numbers sourced from patent US8791132B2.

system-under-test: human recombinant adrenergic α2A receptor (Homo sapiens)
Sequence (P08913 whole entry): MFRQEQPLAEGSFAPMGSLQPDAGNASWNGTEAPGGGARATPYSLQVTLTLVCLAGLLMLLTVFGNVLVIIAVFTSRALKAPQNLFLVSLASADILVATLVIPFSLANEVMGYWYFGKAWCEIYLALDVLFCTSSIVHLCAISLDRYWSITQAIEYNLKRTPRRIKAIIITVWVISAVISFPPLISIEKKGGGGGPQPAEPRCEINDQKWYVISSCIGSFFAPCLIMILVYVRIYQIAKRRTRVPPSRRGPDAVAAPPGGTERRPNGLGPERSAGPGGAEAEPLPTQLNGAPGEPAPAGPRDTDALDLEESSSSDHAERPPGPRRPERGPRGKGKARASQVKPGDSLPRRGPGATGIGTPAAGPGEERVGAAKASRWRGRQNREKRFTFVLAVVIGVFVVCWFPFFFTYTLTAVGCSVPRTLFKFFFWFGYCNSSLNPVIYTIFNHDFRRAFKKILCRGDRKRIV
experiment-description: Radioligand binding, adrenergic α2A ([3H]MK-912)
pKi: −log10 of the molar value.
// rule not met strictly below 8 in pKi; rule met otherwise

Answered cases to consult:
Q: Given the entry Cc1ccc(C(O)Cn2c3c(c4cc(C)ccc42)CN(C)CC3)cc1 (single isomer, unassigned) [183b] , answer whether its pKi meets or surpasses 8.
Result: rule met

Q: Given the entry Cc1ccc2c(c1)c1c(n2CCc2ccccc2F)CCN(C)C1 , answer whether its pKi meets or surpasses 8.
Result: rule met

Now for a further molecule.
Q: Given the entry Cc1ccc2c(c1)c1c(n2CC(O)c2ccncc2)CCN2CCCC12 (single isomer, unassigned) [129d] , answer whether its pKi meets or surpasses 8.
Result: rule met

* * *

system-under-test: rat adrenergic α1B receptor (Rattus norvegicus)
Construct: rat adrenergic α1B receptor obtained from Wistar Rat liver; from tissue; host or cells: Wistar rat liver
experiment-description: Radioligand binding, adrenergic α1B ([3H]Prazosin)
experimental-context: compound at 0.1 μM; [3H]Prazosin; repeat assays, each datapoint shown; 0.1 µM
endpoint: Percentage inhibition of ligand binding, Adrenergic α1B (%)
One number for each entry, in %.

Lookup result for CC(O)(Cn1c2c(c3cc(Cl)cnc31)CNCC2)c1ccncc1 (single isomer, unassigned) [12b] ; measured Percentage inhibition of ligand binding, Adrenergic α1B: 8

Lookup result for Cc1ccc2c(c1)c1c(n2CC(O)c2ccc(C(=O)N(C)C)cc2)CCN(C)C1 (single isomer, unassigned) [52a] ; measured Percentage inhibition of ligand binding, Adrenergic α1B: 9

Lookup result for COc1cccc2c3c(n(CC(O)c4ccncc4)c12)CCN(C)C3 (single isomer, unassigned) [44a] ; measured Percentage inhibition of ligand binding, Adrenergic α1B: 12

Please give Percentage inhibition of ligand binding, Adrenergic α1B, item by item, for the list that follows.
1. Cc1ccc2c(c1)c1c(n2CC(O)c2cccnc2)CCNC1 (single isomer, unassigned) [9a]
2. CC(O)(Cn1c2c(c3cc(Cl)cnc31)CNCC2)c1ccncc1 (single isomer, unassigned) [12a]
3. CCC1c2c(c3cc(C)ccc3n2CC(O)c2ccncc2)C2CCN1C2 (single isomer, unassigned) [36b]
4. CN1CCc2c(c3cccc(Cl)c3n2CC(O)c2ccncc2)C1 (single isomer, unassigned) [45b]
5. CN1CCc2c(n(CC(C)(O)c3cccnc3)c3ccc(Cl)cc23)C1 (single isomer, unassigned) [28a]

Result:
1. 11
2. 23
3. 11
4. 24
5. 41

Please give Percentage inhibition of ligand binding, Adrenergic α1B, item by item, for the list that follows.
1. Cc1ccc2c(c1)c1c(n2CC(O)c2ccncc2)CCNC1 (single isomer, unassigned) [39a]
2. CN1CCc2c(c3cc(C(C)(C)O)ccc3n2CC(O)c2ccncc2)C1 (single isomer, unassigned) [23a]
3. Cc1ccc2c(c1)c1c(n2CC(O)c2ccncc2)C(C)N2CCC1C2 (single isomer, unassigned) [38a]
4. Cc1ccc2c(c1)c1c(n2CC(O)c2cc[n+]([O-])cc2)CCN(C)C1 (centres unmarked) [69b]

Result:
1: 33; 2: −20; 3: 11; 4: 8

Please give Percentage inhibition of ligand binding, Adrenergic α1B, item by item, for the list that follows.
1. OC(Cn1c2c(c3cccnc31)CN1CCCC1C2)c1ccncc1 (single isomer, unassigned) [37d]
2. Cc1ccc2c(c1)c1c(n2CC(OC(=O)C(C)C)c2ccncc2)CCN(C)C1 (single isomer, unassigned) [54b]
3. CN1CCc2c(c3cc(Cl)ccc3n2CC(O)c2cccnc2)C1 (single isomer, unassigned) [7b]
4. OC(Cn1c2c(c3cccnc31)CN1CCCC1C2)c1ccncc1 (single isomer, unassigned) [37a]
5. Cc1cnc2c(c1)c1c(n2CC(O)c2ccncc2)CCN(C)C1 (centres unmarked) [compound 55]
6. Cc1ccc2c(c1)c1c(n2CC(C)(O)c2ccc[n+]([O-])c2)CCN(C)C1 (single isomer, unassigned) [56a]

Result:
1. 2
2. 71
3. 37
4. −5
5. 37
6. 1

Please give Percentage inhibition of ligand binding, Adrenergic α1B, item by item, for the list that follows.
1. Cc1cnc2c(c1)c1c(n2CC(O)c2ccncc2)CCN(C)C1 (single isomer, unassigned) [55a]
2. Cc1ccc2c(c1)c1c(n2CC(C)(O)c2cccnc2)CN(C)CC1 (single isomer, unassigned) [14a]

Result:
1. 28
2. 44

* * *

system-under-test: human recombinant adrenergic α2A receptor (Homo sapiens)
Construct: expressed in transfected cells; host or cells: insect Sf9 cells
experiment-description: Radioligand binding, adrenergic α2A ([3H]MK-912)
experimental-context: compound at 0.1 μM; [3H]MK-912; repeat assays, each datapoint shown; 0.1 µM
Field: Percentage inhibition of ligand binding, Adrenergic α2A. Provide a value for each of the compounds that follow.
One number for each entry, in %.

Lookup result for COc1ccc(C(O)Cn2c3c(c4cc(C)ccc42)CN(C)CC3)cn1 (stereo not shown) [compound 51] ; measured Percentage inhibition of ligand binding, Adrenergic α2A: 20

Lookup result for CN1CCc2c(c3cc(Cl)ccc3n2CC(O)c2ccncc2)C1 (single isomer, unassigned) [4b] ; measured Percentage inhibition of ligand binding, Adrenergic α2A: 7

Lookup result for Cc1ccc2c(c1)c1c(n2CC(C)(O)c2ccncc2)CN(C)CC1 (single isomer, unassigned) [19a] ; measured Percentage inhibition of ligand binding, Adrenergic α2A: 21

Please examine the following record next.
Lookup result for CN1Cc2c(n(CC(O)c3ccncc3)c3ncccc23)C(C)(C)C1 (single isomer, unassigned) [17b] ; measured Percentage inhibition of ligand binding, Adrenergic α2A: 9

* * *

system-under-test: rat adrenergic α1B receptor (Rattus norvegicus, UniProt P15823)
Construct: rat adrenergic α1B receptor obtained from Wistar Rat liver; from tissue; host or cells: Wistar rat liver
Sequence (P15823 whole entry): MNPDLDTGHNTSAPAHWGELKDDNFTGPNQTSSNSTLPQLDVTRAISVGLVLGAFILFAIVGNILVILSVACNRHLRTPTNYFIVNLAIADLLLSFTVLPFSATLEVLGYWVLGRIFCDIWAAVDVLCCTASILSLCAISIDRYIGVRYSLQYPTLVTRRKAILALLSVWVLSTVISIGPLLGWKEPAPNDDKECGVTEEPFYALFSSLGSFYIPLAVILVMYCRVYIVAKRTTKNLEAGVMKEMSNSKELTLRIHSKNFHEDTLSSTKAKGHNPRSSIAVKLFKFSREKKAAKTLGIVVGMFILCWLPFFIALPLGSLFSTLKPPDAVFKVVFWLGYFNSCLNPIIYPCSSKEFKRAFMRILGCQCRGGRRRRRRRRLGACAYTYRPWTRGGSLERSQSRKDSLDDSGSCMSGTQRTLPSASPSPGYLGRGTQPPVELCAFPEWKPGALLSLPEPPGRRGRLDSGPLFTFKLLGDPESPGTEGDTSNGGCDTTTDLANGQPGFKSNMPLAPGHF
experiment-description: Radioligand binding, adrenergic α1B ([3H]Prazosin)
experimental-context: compound at 0.1 μM; [3H]Prazosin; repeat datapoints each shown; 0.1 µM
endpoint: Percentage inhibition of ligand binding, Adrenergic α1B (0.1 μM) (%)
One number for each entry, in %.

Please give Percentage inhibition of ligand binding, Adrenergic α1B (0.1 μM), item by item, for the list that follows.
1. Cc1ccc2c(c1)c1c(n2CC(CC(O)C(C)(C)C)c2ccncc2)CCN(C)C1 (single isomer, unassigned) [II-227a]
2. Cc1ccc2c(c1)c1c(n2CC(O)c2ccncc2)CCN2CCCC12 (stereo not shown) [129b]

Result:
1: 25; 2: 69

* * *

system-under-test: human recombinant adrenergic α2B receptor (Homo sapiens, UniProt P18089)
Construct: expressed in transfected cells; host or cells: CHO-K1
Sequence (P18089 1-450): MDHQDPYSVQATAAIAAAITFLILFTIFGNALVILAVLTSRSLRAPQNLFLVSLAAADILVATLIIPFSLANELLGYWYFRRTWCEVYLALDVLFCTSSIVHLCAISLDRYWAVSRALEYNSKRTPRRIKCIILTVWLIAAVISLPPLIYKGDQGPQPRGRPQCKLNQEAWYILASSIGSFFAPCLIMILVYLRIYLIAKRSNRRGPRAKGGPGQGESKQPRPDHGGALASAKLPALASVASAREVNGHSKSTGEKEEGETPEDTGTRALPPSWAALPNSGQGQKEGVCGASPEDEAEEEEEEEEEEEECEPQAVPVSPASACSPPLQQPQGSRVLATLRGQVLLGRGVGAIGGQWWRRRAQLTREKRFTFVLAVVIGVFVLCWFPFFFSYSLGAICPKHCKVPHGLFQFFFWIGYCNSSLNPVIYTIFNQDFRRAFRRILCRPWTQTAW
experiment-description: Radioligand binding, adrenergic α2B ([3H]Rauwolscine)
experimental-context: read-out: Percentage inhibition of ligand binding, Adrenergic α2B (0.03 μM), compound at 0.03 μM; [3H]Rauwolscine; repeat datapoints each shown
Description: To evaluate in radioligand binding assays the activity of compounds of the invention, human recombinant adrenergic α2B receptor expressed in Chinese hamster ovary (CHO) K1 cells (Uhlen, S. et al, Eur. J. Pharmacol. 343(1):93, 1998) in a modified Tris-HCl buffer (50 mM Tris-HCl, pH 7.4, 12.5 mM MgCl2, 1 mM EDTA, 0.2% BSA) was used. […] Receptor proteins were filtered and washed, the filters were then counted to determine [3H]Rauwolscine specifically bound. […]
// not met strictly below 60% in inhibition at 0.03 µM; met otherwise

Q: Given the entry COc1ccc(CCn2c3c(c4cc(C)ccc42)CN(C)CC3)cc1 , answer whether its inhibition at 0.03 µM meets or surpasses 60%.
Result: met

Q: Given the entry Cc1ccc2c(c1)c1c(n2CC(C(=O)O)c2ccncc2)CCN(C)C1 (stereo not drawn) , answer whether its inhibition at 0.03 µM meets or surpasses 60%.
Result: not met

Q: Given the entry Cc1ccc2c(c1CO)c1c(n2CC(O)c2ccncc2)CCN(C)C1 (stereo not drawn) , answer whether its inhibition at 0.03 µM meets or surpasses 60%.
Result: not met

Q: Given the entry Cc1ccc2c(c1)c1c(n2CCc2ccc(Cl)cc2)CCN(C)C1 , answer whether its inhibition at 0.03 µM meets or surpasses 60%.
Result: met

Q: Given the entry Cc1ccc2c(c1)c1c(n2CC(N=[N+]=[N-])c2ccncc2)CCN(C)C1 (racemic) , answer whether its inhibition at 0.03 µM meets or surpasses 60%.
Result: met

Q: Given the entry Cc1cnc2c(c1)c1c(n2CCc2cccnc2)CCN2CCCC12 (stereo not drawn) [134a] , answer whether its inhibition at 0.03 µM meets or surpasses 60%.
Result: not met

Q: Given the entry Cc1ccc2c(c1)c1c(n2CC(CCN(C)C)c2ccncc2)CCN(C)C1 (stereo not drawn) , answer whether its inhibition at 0.03 µM meets or surpasses 60%.
Result: not met

Q: Given the entry CCC(O)(Cn1c2c(c3cc(Cl)ccc31)CN(C)CC2)c1ccc(F)cc1 (stereo not drawn) , answer whether its inhibition at 0.03 µM meets or surpasses 60%.
Result: not met

Q: Given the entry Cc1ccc2c(c1)c1c(n2CC(N=[N+]=[N-])c2ccc(F)cc2)CCN2CCCC12 (stereo not drawn) , answer whether its inhibition at 0.03 µM meets or surpasses 60%.
Result: met

Q: Given the entry Cc1cnc2c(c1)c1c(n2CC(O)c2ccc(C(N)=O)nc2)CCN(C)C1 (stereo not drawn) , answer whether its inhibition at 0.03 µM meets or surpasses 60%.
Result: not met

Continuing:
Q: Given the entry Cc1cnc2c(c1)c1c(n2CCc2ccc(C(N)=O)nc2)CCN2CCCC12 (stereo not drawn) , answer whether its inhibition at 0.03 µM meets or surpasses 60%.
Result: not met

Q: Given the entry COC(=O)CC(Cn1c2c(c3cc(C)ccc31)CN(C)CC2)c1ccncc1 (stereo not drawn) , answer whether its inhibition at 0.03 µM meets or surpasses 60%.
Result: met

Q: Given the entry Cc1ccc2c(c1)c1c(n2CC(C)(O)c2ccc(C(N)=O)nc2)CCN(C)C1 (single isomer, unassigned) [II-136a] , answer whether its inhibition at 0.03 µM meets or surpasses 60%.
Result: not met

Q: Given the entry Cc1ccc2c(c1CO)c1c(n2CC(C)(O)c2cccnc2)CCN(C)C1 (stereo not drawn) , answer whether its inhibition at 0.03 µM meets or surpasses 60%.
Result: not met

Q: Given the entry Cc1ccc2c(c1)c1c(n2CC(O)c2ccc(F)cc2)CCN2CCCC12 (single isomer, unassigned) [II-120a] , answer whether its inhibition at 0.03 µM meets or surpasses 60%.
Result: met
